# SUBJECT OF TEST: human Cereblon WT GST-tagged protein (Homo sapiens)
# Construct: purchased CISBIO 64BDCRBNPEH
# ASSAY TEXT: CRBN binding, HTRF (CEREBLON BINDING kit)
# APPLIED CONDITIONS: Table II-2, CRBN binding screening, HTRF; at 2 µM; read-out: Inhibition rate (%) at 2 µM
# Experimental: The CEREBLON BINDING kits (specification: 10,000 tests; product number: Catalog # 64BDCRBNPEH; CISBIO company) was used to determine the CRBN binding ability of the compounds to be tested through a HTRF method (homogeneous time-resolved fluorescence). […] After sealing and incubating the solutions in the aforementioned wells at room temperature for 3 hours, the […] at emission wavelengths of 620 nm and 665 nm were detected by the HTRF method using a Spark microplate reader (V3.1 SP1).
ATTRIBUTE MEASURED: inhibition at 2 µM

Q. Which value of inhibition at 2 µM has been reported for Cc1nc2c(F)cc(-c3nc(Nc4ccc(N5CCC(N6CCN(Cc7ccc(C8CCC(=O)NC8=O)cc7)CC6)CC5)cn4)ncc3F)cc2n1C(C)C (stereo not drawn) [GT-03905] in the records?
A. 53 to 60%

Q. // inhibition at 2 µM lookup, key: CC(C)(O)c1cc2nn(C3CCN(Cc4cc(N5CCC(=O)NC5=O)cnc4F)CC3)cc2cc1NC(=O)c1cccc(C(F)(F)F)n1 [GT-07783]
A. 60 to 80%

Q. Give its inhibition at 2 µM value. Item: CC(C)(O)c1cc2nn(C3CCN(Cc4cncc(N5CCC(=O)NC5=O)c4)CC3)cc2cc1NC(=O)c1cccc(C(F)(F)F)n1 [GT-07540]
A. 53 to 60%

---

# Test system: H1975
# ASSAY TEXT: CCK-8 proliferation, NCI-H1975 (H1975)
# Format: cell-based, Human
# APPLIED CONDITIONS: Homo sapiens, NCI-H1975; CCK-8; 96 hours; read-out: Inhibitory activity (IC50) on tumor cell proliferation, H1975
Each entry below carries its recorded IC50.

O=C1CCN(c2cc(CN3C[C@H]4C[C@@H]3CN4c3ccc(-c4cc(F)c5c(c4)C(=O)N(C(C(=O)Nc4nccs4)c4ncn6c4CCC6)C5)cc3)ccn2)C(=O)N1 (stereo partly drawn) :: 1 to 10 nM
Cc1nc2c(F)cc(-c3nc(Nc4ccc(N5CCC(N6CCN(Cc7ccc(N8CCC(=O)NC8=O)nc7)CC6)CC5)cn4)ncc3F)cc2n1C(C)C :: 100 to 500 nM
CNC(=O)c1ccccc1Nc1cc(Nc2ccc(N3CCC(N(C)Cc4ccc(C5CCC(=O)NC5=O)cc4)CC3)cc2OC)ncc1C(F)(F)F (stereo not drawn) :: 100 to 500 nM
CC(C)n1nc(N2CCC(N3CCN(Cc4ccc(N5CCC(=O)NC5=O)nc4)CC3)CC2)c2cnc(Nc3ccnc(-c4cnn(S(=O)(=O)C5CC5)c4)n3)cc21 :: 100 to 500 nM
CN(Cc1ccc(C2CCC(=O)NC2=O)cn1)C1CCN(c2ccc(-c3cc(F)c4c(c3)C(=O)N(C(C(=O)Nc3nccs3)c3ncn5c3CCC5)C4)cc2)CC1 (stereo not drawn) :: 1 to 10 nM

Q. Please give the measured IC50 for this compound: Cc1nc2c(F)cc(-c3nc(Nc4ccc(CN5CCN(Cc6ccc(N7CCC(=O)NC7=O)cc6)CC5)cn4)ncc3F)cc2n1C(C)C
A. 100 to 500 nM

Q. Return reported IC50; argument: Cc1nc2c(F)cc(-c3nc(Nc4ccc(CN5CCN(Cc6ccc(C7CCC(=O)NC7=O)cc6)CC5)cn4)ncc3F)cc2n1C(C)C (stereo not drawn)
A. 500 to 1000 nM

Q. Which IC50 is reported for this compound? NC(=O)c1ncc(N2CCCCC2)nc1Nc1ccc(C2CCN(Cc3ccc(N4CCC(=O)NC4=O)cc3F)CC2)cc1
A. 500 to 1000 nM

Q. // IC50 lookup, key: COc1cc(N2CCN(Cc3cccc(N4CCC(=O)NC4=O)c3)CC2)c(C)cc1Nc1ncc(Br)c(Nc2ccc3nccnc3c2P(C)(C)=O)n1
A. 100 to 500 nM

Q. Query: IC50; subject: O=C1CCC(c2ccc(CN3CCN(C4CCN(c5ccc(-c6cc(F)c7c(c6)C(=O)N(C(C(=O)Nc6nccs6)c6ncn8c6CCC8)C7)cc5)CC4(F)F)CC3)cc2)C(=O)N1 (stereo not drawn)
A. 10 to 50 nM

Q. For the compound CN(Cc1ccc(N2CCC(=O)NC2=O)cc1)C1CCN(c2ccc(-c3cc(F)c4c(c3)C(=O)N(C(C(=O)Nc3nccs3)c3ncn5c3CCC5)C4)cc2)CC1 (stereo not drawn) , what IC50 is on record?
A. 1 to 10 nM

Q. Give its IC50 value. Item: O=C1CCN(c2ccc(CN3C[C@@H]4C[C@H]3CN4c3ccc(-c4cc(F)c5c(c4)C(=O)N(C(C(=O)Nc4nccs4)c4ncn6c4CCC6)C5)cc3)nc2)C(=O)N1 (stereo partly drawn)
A. 10 to 50 nM

---

# System: LNcap
# ASSAY TEXT: CCK-8 proliferation, LNcap
# Format: cell-based
# APPLIED CONDITIONS: Homo sapiens, LNCaP; CCK-8; 96 hours; read-out: Inhibitory activity (IC50) on tumor cell proliferation, Lncap
pIC50: −log10 of the molar value.
ATTRIBUTE MEASURED: pIC50

Below are worked cases with known answers.
Cc1ccc(C(=O)Nc2ccc(CN3CCN(Cc4ccc(C5CCC(=O)NC5=O)cc4)CC3)c(C(F)(F)F)c2)cc1C#Cc1cnc2cccnn12 (centres unmarked) :: 6.30 to 7.00
CC1(C)CCC(c2ccc(Cl)cc2)=C(CN2CCN(c3ccc(C(=O)NS(=O)(=O)c4ccc(N[C@H](CCN5CCOCC5)CSc5ccccc5)c(S(=O)(=O)C(F)(F)F)c4)cc3)CC2)C1 [ABT-263, Navitoclax, reference compound] :: 5.30 to 6.00
CC1(C)CCC(c2ccc(Cl)cc2)=C(CN2CCN(c3ccc(C(=O)NS(=O)(=O)c4ccc(N[C@H](CCN5CCN(Cc6ccc(C7CCC(=O)NC7=O)cc6)CC5)CSc5ccccc5)c(S(=O)(=O)C(F)(F)F)c4)cc3)CC2)C1 (some centres unmarked) :: 7.30 to 8.00
Cc1ccc(C(=O)Nc2ccc(CN3CCN(Cc4ccc(C5CCC(=O)NC5=O)c(F)c4)CC3)c(C(F)(F)F)c2)cc1C#Cc1cnc2cccnn12 (centres unmarked) :: 7.00 to 7.30

// below: pIC50 requested for another molecule
Q. Reported pIC50, molecule CC1(C)CCC(CN2CCN(c3ccc(C(=O)NS(=O)(=O)c4ccc(NCC5CCOCC5)c([N+](=O)[O-])c4)c(Oc4cnc5[nH]ccc5c4)c3)CC2)=C(c2ccc(Cl)cc2)C1 [ABT-199, Venetoclax, reference compound] : ____
A. < 5.00

---

# Tested on: MV-4-11
# ASSAY TEXT: CCK-8 proliferation, MV-4-11
# Format: cell-based, Human
# APPLIED CONDITIONS: CCK-8; 72 or 96 hours; read-out: Inhibitory activity (IC50) on tumor cell proliferation, MV-4-11
ATTRIBUTE MEASURED: IC50

Q. Reported IC50 for CN1CCN(Cc2ccc(NC(=O)c3[nH]ncc3Nc3ncnc4[nH]ccc34)cc2)CC1 [FN-1501, reference compound] : what is it?
A. 1 to 10 nM

---

# SUBJECT OF TEST: human Cereblon WT GST-tagged protein (Homo sapiens, UniProt Q96SW2)
# Construct: purchased CISBIO 64BDCRBNPEH
# Sequence (Q96SW2 whole entry): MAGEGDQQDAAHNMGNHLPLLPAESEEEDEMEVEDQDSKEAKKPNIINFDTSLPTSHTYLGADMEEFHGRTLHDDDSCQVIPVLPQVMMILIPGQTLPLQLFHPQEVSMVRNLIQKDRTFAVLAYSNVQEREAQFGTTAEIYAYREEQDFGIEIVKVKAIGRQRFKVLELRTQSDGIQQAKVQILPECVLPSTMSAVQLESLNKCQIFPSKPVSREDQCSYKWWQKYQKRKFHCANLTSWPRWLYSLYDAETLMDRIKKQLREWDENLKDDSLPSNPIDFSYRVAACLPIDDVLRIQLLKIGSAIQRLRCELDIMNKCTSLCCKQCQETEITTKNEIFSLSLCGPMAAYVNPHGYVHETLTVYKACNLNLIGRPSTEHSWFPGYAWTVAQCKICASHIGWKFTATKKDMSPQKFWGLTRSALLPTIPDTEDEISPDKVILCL
# ASSAY TEXT: CRBN binding, HTRF (CEREBLON BINDING kit)
# APPLIED CONDITIONS: Table II-2, CRBN binding screening, HTRF; at 2 µM; read-out: Inhibition rate (%) at 2 µM
Quick reference for inhibition at 2 µM among some molecules

CN(Cc1ccc(C2CCC(=O)NC2=O)cc1)C1CCN(c2cccc(-c3cnc4ccc(N5CCC[C@@H]5c5cccc(F)c5)nn34)n2)CC1 (stereo partly drawn) :: 80 to 100%
C[C@@H]1CNC(=O)c2cc3ccc(C(=O)Nc4cnn(Cc5ccc(NCc6ccnc(N7CCC(=O)NC7=O)c6)cc5)c4)nc3n21 :: 40 to 53%
CC(=O)c1c(C)c2cnc(Nc3ccc(N4CCN(Cc5cncc(C6CCC(=O)NC6=O)c5)CC4)cn3)nc2n(C2CCCC2)c1=O (stereo not drawn) :: 80 to 100%
CNC(=O)c1ccccc1Nc1cc(Nc2ccc(N3CCN(Cc4ccc(C5CCC(=O)NC5=O)c(F)c4)CC3)cc2OC)ncc1C(F)(F)F (stereo not drawn) :: 40 to 53%
COc1cc(N2CCC(N3CCN(Cc4cc(N5CCC(=O)NC5=O)cnc4F)CC3)CC2)ccc1Nc1ncc(Cl)c(Nc2ccccc2P(C)(C)=O)n1 :: 53 to 60%

Now consider the entry below.
Q. What measured inhibition at 2 µM is associated with COc1cc2nn(C3CCN(Cc4cc(C5CCC(=O)NC5=O)cnc4F)CC3)cc2cc1NC(=O)c1cccc(C(F)(F)F)c1 (stereo not drawn) on human Cereblon WT GST-tagged protein (Homo sapiens, UniProt Q96SW2)?
A. 80 to 100%

Each recorded value in this set is attributed to patent EP4678638A1.
